- Test system: MCF7-DOX
- MEASUREMENT_PROTOCOL: Cytotoxicity against human MCF7/Dox cells assessed as reduction in cell viability after 48 hrs by MTT assay
- Assay type: cell-based
MEASURE: IC50 (µM)
Answers are plain numbers, in µM.

COc1cc(O)c(C(=O)/C=C/c2cccc(N3CCN(C(=O)OC(C)(C)C)CC3)c2)c(OC)c1 56.7
COc1cc(OC)c(C(=O)/C=C/c2cccc(N3CCNCC3)c2)c(O)c1C 98.7

Hi, could you look up IC50 for each item in my list?
1. COc1cc(O)c(C(=O)/C=C/c2ccc(N3CCNCC3)cc2)c(OC)c1
2. COc1cc(OC)c(C(=O)/C=C/c2cccc(N3CCN(C(=O)OC(C)(C)C)CC3)c2)c(O)c1CC=C(C)C
3. COc1cc(OC)c(C(=O)/C=C/c2cccc([N+](=O)[O-])c2)c(O)c1CC=C(C)C
4. COc1cc(OC)c(C(=O)/C=C/c2cccc(F)c2)c(O)c1CC=C(C)C
5. COc1c(C)c(O)c(C)c(O)c1C(=O)/C=C/c1ccccc1
6. COc1cc(OC)c(C(=O)/C=C/c2ccccc2)c(O)c1CC=C(C)C
7. COc1cc(OC)c(C(=O)/C=C/c2ccc(C(F)(F)F)cc2)c(O)c1CC=C(C)C

Result:
1: 67.5; 2: 42.6; 3: 57; 4: 45.4; 5: 46.8; 6: 65.4; 7: 73.7

* * *

Please provide measured pIC50 for the entries that follow.
- Test system: MCF7-DOX
- MEASUREMENT_PROTOCOL: Cytotoxicity against human MCF7/Dox cells assessed as reduction in cell viability after 48 hrs by MTT assay
- Assay type: cell-based
Numbers only, as −log10 of the molar value.

COc1cc(OC)c(C(=O)/C=C/c2cccc(Cl)c2)c(O)c1CC=C(C)C 4.23
COc1ccc(/C=C/C(=O)c2c(OC)cc(OC)c(CC=C(C)C)c2O)cc1 4.33
COc1ccc(C(=O)/C=C/c2cccc(N3CCNCC3)c2)c(OC)c1 4.02

Hi, could you look up pIC50 for each item in my list?
1. COc1cc(OC)c(C(=O)/C=C/c2ccc(N3CCNCC3)cc2)c(O)c1CC=C(C)C
2. COc1cc(OC)c(C(=O)/C=C/c2ccc(OC)c(OC)c2OC)c(O)c1CC=C(C)C

Result:
1: 4.24; 2: 4.20

* * *

- MEASUREMENT_PROTOCOL: Reversal of P-gp-mediated multidrug resistance in human MCF7/Dox cells assessed as potentiation of doxorubicin-induced cytotoxicity by measuring doxorubicin IC50 at 12.5 uM after 48 hrs by MTT assay (reference value: 51.19 +/- 0.95 microM)
MEASURE: IC50 (µM)
One number for each entry, in µM.

// below: answered molecules
COc1cc(O)c(C(=O)/C=C/c2ccc(N3CCNCC3)cc2)c(OC)c1 16.62
COc1cc(OC)c(C(=O)/C=C/c2cc(OC)c(OC)c(OC)c2)c(O)c1CC=C(C)C 26.56
COc1cc(OC)c(C(=O)/C=C/c2cccc(N3CCN(C)CC3)c2)c(O)c1CC=C(C)C 23.59
COc1cc(O)c(C(=O)/C=C/c2cccc(N3CCN(C(=O)OC(C)(C)C)CC3)c2)c(OC)c1 39.95
COc1cc(OC)c(C(=O)/C=C/c2cccc([N+](=O)[O-])c2)c(O)c1CC=C(C)C 8.83

Hi, could you look up IC50 for each item in my list?
1. COc1cc(OC)c(C(=O)/C=C/c2ccccc2)c(O)c1CC=C(C)C
2. COc1cc(OC)c(C(=O)/C=C/c2ccc(N3CCNCC3)cc2)c(O)c1CC=C(C)C
3. COc1cc(OC)c(C(=O)/C=C/c2cccc(N3CCNCC3)c2)c(O)c1C

Result:
1. 20.64
2. 14.84
3. 4

Hi, could you look up IC50 for each item in my list?
1. COc1cc(OC)c(C(=O)/C=C/c2ccc(C(F)(F)F)cc2)c(O)c1CC=C(C)C
2. COc1cc(OC)c(C(=O)/C=C/c2ccc(F)cc2)c(O)c1CC=C(C)C

Result:
1. 23.59
2. 17.96

* * *

- Test system: MCF7-DOX
- MEASUREMENT_PROTOCOL: Cytotoxicity against human MCF7/Dox cells assessed as reduction in cell viability after 48 hrs by MTT assay
- Assay type: cell-based
MEASURE: pIC50
Numbers only, as −log10 of the molar value.

COc1cc(OC)c(C(=O)/C=C/c2cccc(N3CCNCC3)c2)c(O)c1CC=C(C)C 4.00

Hi, could you look up pIC50 for each item in my list?
1. COc1cccc(/C=C/C(=O)c2c(OC)cc(OC)c(CC=C(C)C)c2O)c1
2. COc1cc(OC)c(C(=O)/C=C/c2cccc(C(F)(F)F)c2)c(O)c1CC=C(C)C

Result:
1. 4.31
2. 4.18

* * *

- MEASUREMENT_PROTOCOL: Cytotoxicity against MDCK2 cells assessed as growth inhibition after 48 hrs by MTT assay
- Assay type: cell-based, Canis lupus familiaris
- ASSAY_CONTEXT: dog, MDCK2 (MDCK-II) cells
MEASURE: GI50 at 48 h

Request: So what's the measured GI50 at 48 h for this one? COc1cc(OC)c(C(=O)/C=C/c2cccc(N3CCNCC3)c2)c(O)c1CC=C(C)C
Result: > 100 µM

* * *

- MEASUREMENT_PROTOCOL: Cytotoxicity against human MCF7/Dox cells assessed as growth inhibition after 48 hrs by MTT assay
- Type: cell-based
MEASURE: GI50 at 48 h

Request: So what's the measured GI50 at 48 h for this one? COc1cc(OC)c(C(=O)/C=C/c2cccc(N3CCNCC3)c2)c(O)c1CC=C(C)C
Result: > 100 µM

* * *

- MEASUREMENT_PROTOCOL: Cytotoxicity against human MCF7/Dox cells assessed as cell survival at 12.5 uM after 48 hrs by MTT assay relative to control
- Format: cell-based
- ASSAY_CONTEXT: read-out: Survival
MEASURE: viability at 48 h, 12.5 µM (%)
Answers are plain numbers, in %.

COc1cc(OC)c(C(=O)/C=C/c2ccc(N3CCNCC3)cc2)c(O)c1CC=C(C)C 98.3
COc1cc(OC)c(C(=O)/C=C/c2ccccc2)c(O)c1CC=C(C)C 90.6
COc1cc(OC)c(C(=O)/C=C/c2ccc(Cl)cc2)c(O)c1CC=C(C)C 90.1
COc1cc(OC)c(C(=O)/C=C/c2cccc(N3CCN(C(=O)OC(C)(C)C)CC3)c2)c(O)c1CC=C(C)C 93
COc1cc(OC)c(C(=O)/C=C/c2cccc(C(F)(F)F)c2)c(O)c1CC=C(C)C 91.6

Hi, could you look up viability at 48 h, 12.5 µM for each item in my list?
1. COc1cc(O)c(C(=O)/C=C/c2cccc(N3CCN(C(=O)OC(C)(C)C)CC3)c2)c(OC)c1
2. COc1cc(O)c(C(=O)/C=C/c2ccc(N3CCN(C(=O)OC(C)(C)C)CC3)cc2)c(OC)c1
3. COc1c(C)c(O)c(C)c(O)c1C(=O)/C=C/c1ccccc1
4. COc1cc(OC)c(C(=O)/C=C/c2ccc(F)cc2)c(O)c1CC=C(C)C
5. COc1cc(OC)c(C(=O)/C=C/c2cc(OC)c(OC)c(OC)c2)c(O)c1CC=C(C)C
6. CCCCc1c(OC)cc(OC)c(C(=O)/C=C/c2cccc(N3CCNCC3)c2)c1O

Result:
[85.4, 90.6, 86, 94.3, 90.8, 91.6]

Hi, could you look up viability at 48 h, 12.5 µM for each item in my list?
1. CCc1c(OC)cc(OC)c(C(=O)/C=C/c2cccc(N3CCNCC3)c2)c1O
2. CCCCCc1c(OC)cc(OC)c(C(=O)/C=C/c2cccc(N3CCNCC3)c2)c1O
3. COc1ccc(C(=O)/C=C/c2cccc(N3CCNCC3)c2)c(OC)c1
4. COc1cc(OC)c(C(=O)/C=C/c2cccc(F)c2)c(O)c1CC=C(C)C

Result:
1: 89.5; 2: 93.6; 3: 96.4; 4: 92.7

* * *

- MEASUREMENT_PROTOCOL: Cytotoxicity against human MCF7/Dox cells assessed as cell survival at 12.5 uM after 48 hrs by MTT assay relative to control
- Format: cell-based
- ASSAY_CONTEXT: read-out: Survival
MEASURE: viability at 48 h, 12.5 µM (%)
One number for each entry, in %.

// below: answered compounds
COc1cc(O)c(C(=O)/C=C/c2ccc(N3CCNCC3)cc2)c(OC)c1 94.2
COc1cc(OC)c(C(=O)/C=C/c2ccc(OC)c(OC)c2OC)c(O)c1CC=C(C)C 91.9

Request: So what's the measured viability at 48 h, 12.5 µM for this one? COc1cc(OC)c(C(=O)/C=C/c2cccc(N3CCNCC3)c2)c(O)c1C
Result: 95.8

All figures here come from ChEMBL document CHEMBL4359857.
